# TESTED_SYSTEM: Ecm22 (UniProt Q05958)
# Sequence: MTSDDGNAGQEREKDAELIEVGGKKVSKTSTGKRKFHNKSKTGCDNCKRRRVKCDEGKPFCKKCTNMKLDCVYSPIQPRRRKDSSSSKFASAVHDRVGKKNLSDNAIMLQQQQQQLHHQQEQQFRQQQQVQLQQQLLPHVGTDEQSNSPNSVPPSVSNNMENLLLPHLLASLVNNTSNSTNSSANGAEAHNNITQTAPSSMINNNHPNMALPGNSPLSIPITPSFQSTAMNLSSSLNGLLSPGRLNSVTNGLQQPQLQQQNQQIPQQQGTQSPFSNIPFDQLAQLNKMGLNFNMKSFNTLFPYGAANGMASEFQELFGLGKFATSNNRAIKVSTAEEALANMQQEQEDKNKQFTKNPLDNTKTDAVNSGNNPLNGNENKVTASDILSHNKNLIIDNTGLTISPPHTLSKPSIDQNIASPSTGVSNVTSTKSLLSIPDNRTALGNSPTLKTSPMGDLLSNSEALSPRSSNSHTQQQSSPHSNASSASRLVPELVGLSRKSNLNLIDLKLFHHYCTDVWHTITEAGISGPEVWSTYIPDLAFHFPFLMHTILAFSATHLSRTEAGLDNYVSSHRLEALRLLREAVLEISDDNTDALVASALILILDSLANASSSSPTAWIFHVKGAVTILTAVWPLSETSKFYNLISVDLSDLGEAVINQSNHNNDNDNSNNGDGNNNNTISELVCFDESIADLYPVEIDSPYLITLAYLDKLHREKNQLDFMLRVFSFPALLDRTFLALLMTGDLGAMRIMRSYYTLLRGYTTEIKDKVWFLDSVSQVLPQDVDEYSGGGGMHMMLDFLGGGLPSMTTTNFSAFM
# EXPERIMENT_NOTES: PBM E-score (8-mer binding enrichment) (E-score (-0.5 to 0.5)); higher = stronger / more preferred TF binding
# CONDITION: protein concentration: 200 nM; construct: GST-full length
The full ranking holds about 33,000 sequences; the median of “E-score (-0.5 to 0.5)” is about -0.041, and the highest 2% start at about 0.37. The sample holds the highest values, similar sequences and a random draw of the others, so the mix is not that of the screen.
Returns y if the recorded PBM E-score is greater than or equal to -0.02, and n otherwise.

* CCGTTAGA | y
* ACGGGAGA | y
* GCGTCGAA | y
* GCGTACGC | y
* AAGCTGGG | n
* AGTTCCCA | y
* AGTACTTA | y
* CGTGTGCA | n
* AGCGCCGC | n
* ATTCGTGA | y
* TAGTCTAA | n
* GCGACGCA | y
* CAACTCTC | n
* AACTCTTC | y
* ATTTTCCA | n
* TATGGGAA | n
* TAAGGATA | y
* CTCCACAG | n
* AGACGAAC | y
* AACCTCTT | n
* CGTACAAG | y
* GGTTCCCA | n
* TAGTCAGA | n
* GGAAATCC | y
* ATACGAAC | y
* AGTACAAG | y
* CCTATGGA | n
* GTCAGGGA | n
* ATTCATAC | y
* ATTCGTAG | y
* GCGTACTA | y
* GCAACGAC | y
* CACGTCCG | n
* GCAGCCGC | n
* TCGTTCAA | y
* CCGTACGG | y
* CGCATGCG | y
* CTTTTGCC | n
* CCCGAAGC | n
* CTACGAAC | y
* AGTACAAA | y
* CCGACGCA | y
* CTACGAAG | y
* GGTACAAA | n
* ACGACGCA | y
* CGGCCATC | n
* AGTTCCCC | n
* CCGTATCG | y
* GCGTACGA | y
* AACGATAA | y
* GTACGAAC | y
* CGTACTGA | y
* ACGACGCG | y
* CGTTTCCC | y
* ACCGATAA | y
* ACGTCGTA | y
* CCACGAAC | y
* CCCTGACC | y
* ACAACGAC | y
* CGTACATC | y
* TCAACGAA | y
* GTTCGTAA | y
* ACTTCACC | y
* ACGTACGG | y
* ACCCCCCT | n
* CCGTCGTA | y
* GCGTCGTA | y
* GACGTTAA | y
* CCCTACGG | n
* GCACGAAC | y
* ACGTATCG | y
* GTTCGTCA | y
* CCTAGGAG | n
* ATCGGGCA | n
* ACTTCCAA | n
* AGTGCGTA | y
* CCGTCGTC | y
* ACGACTCA | y
* ACAAGCCG | y
* CTCGCACC | y
* GCGTCGCA | y
* CGTACAAA | y
* ATTCGTAA | y
* AGTACATA | n
* AAAGCCTG | n
* ACGTATTG | y
* CGGTATAG | y
* CGTTCCCA | y
* AACGCATT | y
* ACGTACGT | y
* ACGTCGTG | y

The origin of these recorded values is the supplement of paper PMC3334620.
